Ref: the EternaBench riboswitch data

Test system: MS2 coat protein
Assay: apparent Kd, MS2 coat protein; higher = weaker binding; RNA-MaP array; FMN 200 µM where present
Conditions: ligand present: flavin mononucleotide; designed as: OFF switch for flavin mononucleotide
Kindly return rule met if reported apparent Kd is no lower than 20 nM; return rule not met if it is lower.

GCUUCCCAUGUGAGGAUAUGUAGGGUUAACCCGAGGCAGAAGGCACAUGAGGAUCACCCAUGUUAAAACUUCUA; rule met

Task: Hello, I need to know if `UUUUUAUUUGCAGGAUAUUGUAUUUUAUUACUUCAAGAAGGGCAUUACAUGAGGAUCACCCAUGUCUUCCUAUGGUUAACUAGU` has measured apparent Kd not below 20 nM. Thanks!
Output: rule not met

Task: Now the sequence `GUCAGCUCGUGAGGAUAUACAUGUGCUGGAAACAGCACUAAAGUUUUCACAUGAGGAUCACCCAUGUAGAAGGCACGAGCUGAU`
Output: rule met

Task: // query: `GUGUAGAUAGGAUAUACAUGAGUCUAGCGAAGCUAGAUUCUACAUGAGGAUCACCCAUGUAGAAGGGUCUACAC`
Output: rule not met

Task: Now the same for `UGACCCAUGACAUGAGAUGACAUGAGGAUCACCCAUGUUUACAAGGAUAUGUUGAUGAAACAUCAACAGAAGGUGUAAUGGGCU`
Output: rule met

Task: For `UUAAUUUGGUGAUAUUAUGACAUUAGAAGGCUGUACAUGUUGAUACAUGAGGAUCACCCAUGUAUAGAGGAUAUAGACAAUUUU` then?
Output: rule met

Task: Same thing, different sequence: `GUUAUUUAUGUAGGAUAUGCGAGGCGAGCCUGAGCAGAAGGACAUGAGGAUCACCCAUGUAUUGCGGUUUAUGUUCAGAUCGCU`
Output: rule not met

====

System: MS2 coat protein
Assay: apparent Kd, MS2 coat protein; higher = weaker binding; RNA-MaP array; FMN 200 µM where present
Settings: designed as: OFF switch for flavin mononucleotide; no ligand
readoutKind: apparent Kd (nM)
// return numeric value only (unit: nM, not printed)

Some sequences with recorded apparent Kd:
CUUCAGUCACAGGAUAUGCUCAUCUAAUGAUGAGCAGAAGGGUGAACAUGAGGAUCACCCAUGUUUACGGUGGU; 621
GUUAUUUAUGUAGGAUAUGCGAGGCGAGCCUGAGCAGAAGGACAUGAGGAUCACCCAUGUAUUGCGGUUUAUGUUCAGAUCGCU; 15.3

We next turn to a different sequence, shown below.
Task: What value of apparent Kd has been recorded for this entry: `CUGCGGUAGGAGAAGGACGGCGGGUUAUUUUCGUACAUGAGGAUCACCCAUGUAGGAUAUCCUACCUCAGGCGGCCUACUACAG`
Output: 19.9

====

Test system: MS2 coat protein
Assay: apparent Kd, MS2 coat protein; higher = weaker binding; RNA-MaP array
Conditions: ligand present: flavin mononucleotide; designed as: ON switch for flavin mononucleotide
readoutKind: apparent Kd
Numeric answer plus unit only.

Previously resolved entries follow.
GCGGGAGCACAGAAGGCGGAACUAAAGCAAUUACCAAUAGUUAACAUGAGGAUCACCCAUGUGCCCGAGGAUAUGUCGAAAGUG; 10.6 nM
CGCCUACAUGAGGAUCACCCAUGUGAUGUUACGGUAGGAUAUAGAGCUGAGCCACUCUGCCUAGAAGGACCUAUAC; 37.3 nM
GUGCGAAUGCAAGGAUAUGUCACAUAAACUGGAACAGAAGGUGCUGCUGAACAUGAGGAUCACCCAUGUACUUGACCGGCAACU; 6.81 nM
GUUAUAAUUACCAAGGAUAUCACAAGGCUUACAUGAGGAUCACCCAUGUUAAUACUCACAGACCGUGAGAAGGUGGCAAGAUCGAU; 16 nM
AUGUAACGUGAGAAGGUGUUGAAAUAAGUUCCAUAAAUCUUACAUGAGGAUCACCCAUGUUUAUACAAGGAUAUCAUUAAUUAU; 12.9 nM
CUUUAUACAUGAGGAUAUUGGAAAACCGGCGUACAAGAAGGCAUGACAUGAGGAUCACCCAUGUAAAGAUAAAGACAAAGCUAA; 10.3 nM
CGAUUACUGCAGAAGGGAGGGCCACAAAACAUGAGGAUCACCCAUGUAGAACUGAACGGGACUCCUCAGGAUAUGCGCCGAGAU; 11.8 nM
GAAACAUUAGAAGGAUAUGAUACGAACACCGGGUACAUGAGGAUCACCCAUGUUCAGAAAUAAUAUCAGAAGGUCAGCAACAAA; 418 nM
UAAACAUGAGGAUCACCCAUGUAUUGGAGUAACCGCAAGAGGAGAAGGACCGGAGUGAGAUUAUGGUAGGAUAUCCCAACUACA; 12.1 nM
UUCUACUAGUGACACUACUAGACAUGAGGAUCACCCAUGUCAGAGGAUAUGGAAAGACAUUAUUACCAGAAGGCUGCCAAGGUA; 15 nM

Task: // returns reported apparent Kd for input `AUUAGCAAGUCAUAGGAUAUGAAGCCACUUACAUGAGGAUCACCCAUGUAAUUCCGGGUCCCGCCUCAGAAGGAUGACGUAAUAGG`
Output: 7.12 nM

Task: Queued: `AAAGAUAACAAAGGAUAUGGAAGAAAUUAUAGGCCAGAAGGAUGGAAAUUGACAAUCGUGACAUGAGGAUCACCCAUGUAAGAA`
Output: 13.2 nM

Task: For `CUCACUAAGCUUUAGGAUAUAGACACUGGCACAUGAGGAUCACCCAUGUUCAACAAGGCGGAUAACUAGAAGGAAAGUAACCUUUU` then?
Output: 9.64 nM

====

Listed next: entries and their corresponding apparent Kd.
Test system: MS2 coat protein
Test: apparent Kd, MS2 coat protein; higher = weaker binding; RNA-MaP array; FMN 200 µM where present
Conditions: ligand present: flavin mononucleotide; designed as: ON switch for flavin mononucleotide
Express the reported value numerically, then name its unit.

UGGUACUAGGGAGGAUAUGGGAAGAUACAUGAGGAUCACCCAUGUUUAAGAAUGCAGAGAGGCAACUAGAAGGCCCUAGUACCU; 18.7 nM
CUAGAUAUGUAAGGAUAUAUAGUGGAAUACACUAUAGAAGGUAUGUGAUAACAUGAGGAUCACCCAUGUCAUUGGAUAUCUAGA; 60.3 nM
AUUAUUUACAUAGGAUAUUGUUACAUGAGGAUCACCCAUGUUAUUUGGGAAUUAGGAAUAUUUUACAAGAAGGAUGUUGUUACA; 67 nM
AUGGAUACCACAGGAUAUAGCUAGCAUAGCUAGCUAGAAGGGUGGUCCAUCCUAUGUAAAUACAUGAGGAUCACCCAUGUGUCC; 207 nM

Task: Consider the sequence shown here: `GGUAAGAUGCAGAAGGUGUUAGCUAGAGCUACGACAUGAGGAUCACCCAUGUACUAGAAACAGUACAAGGAUAUGCAUCUUACA` What is its recorded apparent Kd?
Output: 6.12 nM

Task: How about `UUGGACGUCGUAGGAUAUGUAGGAUAUUCCUACAUGAGGAUCACCCAUGUUGACACGGAAGAAGGACAGAAGGACGAUGUCCAU` ?
Output: 4.23 nM

Task: Follow-up item: `GUGGUCAGACAUGAGGAUCACCCAUGUGGAAUAAAUAAGGAGAAGGAUAUCUAAUAUAGGAUAUAAGAGAAGGUUUGGUUGGUG`
Output: 68 nM

====

Tested on: MS2 coat protein
Experiment: apparent Kd, MS2 coat protein; higher = weaker binding; RNA-MaP array; FMN 200 µM where present
Settings: ligand present: flavin mononucleotide; designed as: ON switch for flavin mononucleotide
readoutKind: apparent Kd (nM)
Kindly answer with a numeric value in nM, unit omitted.

Solved entries:
UUCGCUAAGGUGUAGCGAGACUUGCAAGAAGGGUGAAGAACAUGAGGAUCACCCAUGUAAGCCUUACAGGAUAUUGCUUGACGA; 36.4
ACUGAAGUCACAGGAUAUCAUAUGCCGGCACAUUGAGAAGGGUGACUGGGCUACAUGAGGAUCACCCAUGUGCCGUCGUAACAA; 36.9

Now look at this one.
Task: I have this sequence here, `UUAUAUAAGGUGUAGCUAGACAUGCAAGAAGGGUGAAGAACAUGAGGAUCACCCAUGUAGACGGUACAGGAUAUUGAUUGACGA` , and I need its recorded apparent Kd.
Output: 166

====

System: MS2 coat protein
Assay: apparent Kd, MS2 coat protein; higher = weaker binding; RNA-MaP array; FMN 200 µM where present
Conditions: designed as: OFF switch for flavin mononucleotide; no ligand
Each entry falls in a class defined on apparent Kd; the bands are bin A = under 20 nM, bin B = from 20 nM up to 40 nM, bin C = 40 nM and over

These recorded examples may help you get a feel for the data.
GUCAGCUCGUGAGGAUAUACAUAAUAUCAAGAUCACAUGAGGAUCACCCAUGUAGAAGGCACGAGCUGAUAAGCACGAAAGUGC; bin A
AAAAGGCUAGGAUAUACCAGUGGGUGUAAGAACUCAAAGUUACAUGAGGAUCACCCAUGUAGAAGGAGUAAAAU; bin A
GGGUGACAUGAGGAUCACCCAUGUCAGGAUAUGCGCGCGCGCGCGAAAGUGUGUGUGUGUAGAAGGGACUGCCC; bin C
GUUUUGAUAGGAUAUACAUGAGGAUCACCCAUGUCCCACCCGUUACCUCUGACCCUAUGUAGAAGGAUCGUUUG; bin B
UAUAACCAAGGAUAUACAUGAGGAUCACCCAUGUAAUAUAGUAUAAUAUAUGUAAAAUGUAGAAGGUGGGAUGU; bin B

Task: Exam item: assign `GUAAAUCAUGUAGGAUAUGCAUGGCGAAGCUACGCAGAAGGACAUGAGGAUCACCCAUGUCUCUCCGUCUGCAUACAGACGGAG` to the correct category.
Output: bin B

Task: Param item: `GGAAAGUGAGGAUAUGGUAAUUUAAUUAUUAAUUAAUUAAUCCAGAAGGCACAUGAGGAUCACCCAUGUAAAGG`
Output: bin B

Task: Moving on to the next sequence: `UUUUUAUUUGCAGGAUAUUGUAUUUUAUUACUUCAAGAAGGGCAUUACAUGAGGAUCACCCAUGUCUUCCUAUGGUUAACUAGU`
Output: bin A

Task: `GUCAGCUCGUGAGGAUAUACAACACUGCUUCGGCAGUGUAUAAAGAUCACAUGAGGAUCACCCAUGUAGAAGGCACGAGCUGAU` , same question.
Output: bin A

Task: Thanks! And `GAUCAACAUGAGGAUCACCCAUGUGAGGAUAUGUAUCAUAGAUCUUCGGAUCUAUGAUACAGAAGGCAUGUAGG` ?
Output: bin C

Task: Continue with `UUAUGAGAGCAGGAUAUCUUAUAUGUGUAUUAAAGAGAAGGGCUCACAUGAGGAUCACCCAUGUGGUCCUAGAU`
Output: bin C
